All values here come from patent US20230295162A1.

- Test system: SCC-25 (tongue, squamous cell carcinoma) cells
- test details: Cell viability assay, CellTiter-Glo (Example 21)
- Assay type: cell-based, human
- measurement setup: 11.1 nM, 72 h treatment
readout label: SCC-25 (tongue, squamous cell carcinoma) cell viability (% of control)

# count of solved cases: 3
[
  {
    "compound": "O=C1C2=C(CCN(Cc3cc(F)cc(F)c3)C2)N2CCN=C2N1Cc1ccc(Cl)cc1",
    "measurement target": "SCC-25 (tongue, squamous cell carcinoma) cells",
    "measurement": "34.3 ± 2.0 % of control"
  },
  {
    "compound": "O=C1C2=C(CCN(Cc3ccccc3)C2)N2CCN=C2N1Cc1ccc(C(F)(F)F)cc1 [I/1, reference compound]",
    "measurement target": "SCC-25 (tongue, squamous cell carcinoma) cells",
    "measurement": "105.5 ± 12.7 % of control"
  },
  {
    "compound": "[N-]=[N+]=Nc1cccc(CN2CCC3=C(C2)C(=O)N(Cc2ccc(C(F)(F)F)cc2)C2=NCCN23)c1",
    "measurement target": "SCC-25 (tongue, squamous cell carcinoma) cells",
    "measurement": "79.0 ± 11.0 % of control"
  }
]

Dear colleague, could you please provide SCC-25 (tongue, squamous cell carcinoma) cell viability (% of control) for the compounds listed below?
1. [N-]=[N+]=Nc1ccc(CN2C(=O)C3=C(CCN(Cc4cc(F)cc(F)c4)C3)N3CCN=C23)cc1
2. O=C1C2=C(CCN(Cc3cc(F)cc(F)c3)C2)N2CCN=C2N1Cc1ccc(F)cc1
3. [N-]=[N+]=Nc1cccc(CN2CCC3=C(C2)C(=O)N(Cc2ccc(Cl)cc2)C2=NCCN23)c1
4. O=C1C2=C(CCN(Cc3cccc(F)c3)C2)N2CCN=C2N1Cc1ccc(C(F)(F)F)cc1 [I/3, reference compound]
5. O=C1C2=C(CCN(Cc3cccc(F)c3)C2)N2CCN=C2N1Cc1ccc(F)cc1 [I/6, reference compound]

Response given:
1: 75.6 ± 6.8 % of control; 2: 45.1 ± 4.7 % of control; 3: 72.9 ± 3.0 % of control; 4: 95.1 ± 5.1 % of control; 5: 96.2 ± 4.8 % of control

Lab note: `O=C1C2=C(CCN(Cc3cc(F)cc(F)c3)C2)N2CCN=C2N1Cc1ccc(C(F)(F)F)cc1` gave SCC-25 (tongue, squamous cell carcinoma) cell viability (% of control) of 35.0 ± 14.5 % of control
